Data provenance: patent EP4775570A1

Please go through the items and note down their pIC50.
# TARGET_OR_TEST_SYSTEM: CYP11A1 (Homo sapiens)
# Construct: host or cells: NCI-H295R
# Sequence (P05108 40-521): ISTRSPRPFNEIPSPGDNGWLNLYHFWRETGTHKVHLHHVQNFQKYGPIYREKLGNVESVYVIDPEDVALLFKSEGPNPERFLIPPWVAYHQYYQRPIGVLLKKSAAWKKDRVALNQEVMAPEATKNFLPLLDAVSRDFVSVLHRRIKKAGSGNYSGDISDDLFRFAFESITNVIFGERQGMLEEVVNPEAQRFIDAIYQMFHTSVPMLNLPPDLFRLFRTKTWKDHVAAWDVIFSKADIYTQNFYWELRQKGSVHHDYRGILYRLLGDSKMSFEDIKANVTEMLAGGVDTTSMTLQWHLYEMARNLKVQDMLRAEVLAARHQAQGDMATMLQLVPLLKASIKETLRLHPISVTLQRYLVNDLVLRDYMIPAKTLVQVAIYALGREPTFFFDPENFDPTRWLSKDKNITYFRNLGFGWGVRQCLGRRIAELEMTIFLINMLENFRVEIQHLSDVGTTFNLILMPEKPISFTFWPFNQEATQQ
# TEST_DESCRIPTION: NCI-H295R cellular pregnenolone biosynthesis inhibition assay (ELISA method)
# Type: cell-based
# TEST_CONDITIONS: NCI-H295R cells, 3 days incubation, pregnenolone in cell supernatant by ELISA; read-out: IC50
pIC50: −log10 of the molar value.

[Q] Quick one: give measured pIC50 for CS(=O)(=O)N1CCC(CCc2ccc(CN3Cc4ccccc4C3)cc2Cl)CC1 [compound 84]
[A] > 7.00

[Q] Quick one: give measured pIC50 for COc1cc(CN2Cc3ccccc3C2)ccc1CCC1CCN(S(=O)(=O)c2cccs2)CC1 [compound 78]
[A] > 7.00

[Q] Quick one: give measured pIC50 for Cn1c(CN2Cc3ccccc3C2)c(F)cc(-c2ccc3c(c2)CCN(S(C)(=O)=O)C3)c1=O [compound 120]
[A] > 7.00

[Q] Quick one: give measured pIC50 for CS(=O)(=O)N1CCC(C=Cc2cc(F)c(CN3Cc4ccccc4C3)cc2C#N)CC1 [compound 61]
[A] 6.52 to 7.00

[Q] Quick one: give measured pIC50 for CC1CC(CCc2cc(F)c(CN3Cc4ccccc4C3)n(C)c2=O)CCN1C(=O)OC(C)(C)C (stereo not shown) [compound 117]
[A] > 7.00

[Q] Quick one: give measured pIC50 for CC1CC(C#Cc2cc(F)c(CN3Cc4ccccc4C3)n(C)c2=O)CCN1C(=O)OC(C)(C)C (stereo not shown) [compound 115]
[A] > 7.00

[Q] Quick one: give measured pIC50 for COc1cc(CN2Cc3ccccc3C2)ccc1COC1CCN(S(C)(=O)=O)CC1 [compound 42]
[A] < 6.52
